This collection of values is drawn from patent US8030498B2.

Property: pest or weed control at 31 g/ha; scope: individual compounds
System: corn (Zea mays L.)
TEST METHOD NOTES: Test Example 1: foliar treatment, growth inhibition rate, corn
Assay type: in vivo
SETTINGS: Zea mays, 31 g/ha active ingredient, visually observed 17th to 23rd day after application

[
  {
    "COMPOUND": "CCSC(=O)Oc1c(C(=O)c2ccc(S(C)(=O)=O)c(OCC(OC)OC)c2C)cnn1C [Compound No. 209]",
    "pest or weed control at 31 g/ha": "0%"
  },
  {
    "COMPOUND": "CCSC(=O)Oc1c(C(=O)c2ccc(S(C)(=O)=O)c(C3=NOCC3)c2C)cnn1C [Compound No. 39]",
    "pest or weed control at 31 g/ha": "0%"
  },
  {
    "COMPOUND": "CCSC(=O)Oc1c(C(=O)c2ccc(S(C)(=O)=O)c(C(=O)OC)c2C)cnn1CC [Compound No. 2]",
    "pest or weed control at 31 g/ha": "10%"
  },
  {
    "COMPOUND": "CCSC(=O)Oc1c(C(=O)c2ccc(S(C)(=O)=O)c(OCCOC)c2C)cnn1CC [Compound No. 16]",
    "pest or weed control at 31 g/ha": "0%"
  }
]

----------
System: rice (Oryza sativa L.)
TEST METHOD NOTES: Test Example 1: foliar treatment, growth inhibition rate, rice
Format: in vivo
SETTINGS: 31 g/ha active ingredient, visually observed 17th to 23rd day after application
Mark f for Growth inhibition rate (%) Rice values under 70%, and t for everything at or above.

[
  {
    "SMILES CODE": "CCSC(=O)Oc1c(C(=O)c2ccc(C(F)(F)F)cc2S(C)(=O)=O)cnn1CC",
    "ASSIGNED CATEGORY": "f"
  },
  {
    "SMILES CODE": "CCSC(=O)Oc1c(C(=O)c2ccc(S(C)(=O)=O)c(CCOC)c2C)cnn1C",
    "ASSIGNED CATEGORY": "t"
  },
  {
    "SMILES CODE": "COC(=O)c1c(S(C)(=O)=O)ccc(C(=O)c2cnn(C)c2OC(=O)SC)c1Cl",
    "ASSIGNED CATEGORY": "f"
  },
  {
    "SMILES CODE": "CCCSC(=O)Oc1c(C(=O)c2ccc(S(C)(=O)=O)c(OCCOC)c2C)cnn1C",
    "ASSIGNED CATEGORY": "t"
  },
  {
    "SMILES CODE": "CCOC(=O)c1c(S(C)(=O)=O)ccc(C(=O)c2cnn(CC)c2OC(=O)SCC)c1Cl",
    "ASSIGNED CATEGORY": "f"
  },
  {
    "SMILES CODE": "CCOC(=O)c1c(S(C)(=O)=O)ccc(C(=O)c2cnn(CC)c2OC(=O)SC)c1C",
    "ASSIGNED CATEGORY": "t"
  },
  {
    "SMILES CODE": "CCn1ncc(C(=O)c2ccc(S(C)(=O)=O)c(C(=O)OC)c2C)c1OC(=O)SC(C)C",
    "ASSIGNED CATEGORY": "t"
  },
  {
    "SMILES CODE": "CCn1ncc(C(=O)c2ccc(S(C)(=O)=O)c(OCCOC)c2C)c1OC(=O)SC(C)C",
    "ASSIGNED CATEGORY": "t"
  },
  {
    "SMILES CODE": "CCSC(=O)Oc1c(C(=O)c2ccc(S(C)(=O)=O)c(COC)c2C)cnn1C",
    "ASSIGNED CATEGORY": "t"
  },
  {
    "SMILES CODE": "CCn1ncc(C(=O)c2ccc(S(C)(=O)=O)c(C(=O)OC)c2Cl)c1OC(=O)SC",
    "ASSIGNED CATEGORY": "f"
  },
  {
    "SMILES CODE": "CCn1ncc(C(=O)c2ccc(S(C)(=O)=O)c(C(=O)OC)c2C)c1OC(=O)SC(C)(C)C",
    "ASSIGNED CATEGORY": "t"
  }
]
